# Tested on: SUM1315
# Assay text: area over the GR curve, 72 h; higher = more effect;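 also: Dye Drop or Deep Dye Drop imaging of viable cells in 384-well plates (Hoechst nuclei, LIVE/DEAD dye), nine half-log doses, GR normalized to DMSO controls and time-zero plates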
Quantity name: area over the GR curve (GR)

Compound	Quantity name	Output unit	Test value
Cc1nn(C)c(COc2ccc(N3CCN(S(=O)(=O)N(C)C)CC3)cc2)c1-c1cccc2c(CCCOc3cccc4ccccc34)c(C(=O)O)n(CCN3CCOCC3)c12 (max 10 µM)	area over the GR curve	GR	-0.0531
CC(C)NC[C@@H](C(=O)N1CCN(c2ncnc3c2[C@H](C)C[C@H]3O)CC1)c1ccc(Cl)cc1 [Ipatasertib/GDC0068] (max 10 µM)	area over the GR curve	GR	0.124
CN(C)C/C=C/C(=O)Nc1ccc(C(=O)N2CCC[C@@H](Nc3ncc(Cl)c(-c4c[nH]c5ccccc45)n3)C2)cc1 [THZ531] (max 1 µM)	area over the GR curve	GR	0.148
CN(C)C/C=C/C(=O)Nc1ccc(C(=O)Nc2cccc(Nc3ncc(Cl)c(-c4c[nH]c5ccccc45)n3)c2)cc1 [THZ1] (max 1 µM)	area over the GR curve	GR	0.229
COc1cccc(OCCCN)c1-c1cc(Nc2cnc(C#N)cn2)n[nH]1	area over the GR curve	GR	0.809
O=C1NC(=O)[C@@H](c2cn3c4c(cccc24)CCC3)[C@@H]1c1c[nH]c2ccccc12 [Tivantinib/ARQ197] (max 10 µM)	area over the GR curve	GR	0.475
CNc1nc(-c2ccc3c(N)n[nH]c3c2)cc(N2C[C@@H](C(=O)NC3CCCCC3)CC[C@H]2C)n1 (max 10 µM)	area over the GR curve	GR	0.291
